FYI, the data here is from patent US9597315B2.

system: human 5-HT transporter (Homo sapiens, UniProt P31645)
Construct: expressed in transfected cells; host or cells: HEK 293 cells
Sequence (P31645 whole entry): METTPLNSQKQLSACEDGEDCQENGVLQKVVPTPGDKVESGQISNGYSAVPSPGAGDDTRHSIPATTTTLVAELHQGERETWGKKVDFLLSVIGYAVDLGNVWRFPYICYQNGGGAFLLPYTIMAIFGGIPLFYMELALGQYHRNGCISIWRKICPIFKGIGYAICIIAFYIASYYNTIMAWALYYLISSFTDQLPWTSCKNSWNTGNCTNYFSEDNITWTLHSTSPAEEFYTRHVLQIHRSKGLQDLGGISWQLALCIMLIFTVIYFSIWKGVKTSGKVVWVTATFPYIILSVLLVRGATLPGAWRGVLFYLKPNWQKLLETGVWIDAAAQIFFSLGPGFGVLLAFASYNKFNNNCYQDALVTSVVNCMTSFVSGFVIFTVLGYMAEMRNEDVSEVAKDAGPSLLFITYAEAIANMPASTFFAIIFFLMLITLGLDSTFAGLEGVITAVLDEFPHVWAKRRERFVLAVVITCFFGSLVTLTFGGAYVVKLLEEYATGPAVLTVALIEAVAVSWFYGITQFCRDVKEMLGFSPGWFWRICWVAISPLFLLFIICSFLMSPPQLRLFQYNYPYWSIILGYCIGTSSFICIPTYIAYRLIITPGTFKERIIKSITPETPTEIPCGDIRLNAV
procedureSummary: Inhibition of [3H]5-HT uptake in cells expressing the recombinant human 5-HT transporter
Format: cell-based
runConditions: HEK293, 1 μM compound, HEK 293 cells expressing the 5-HT transporter, read-out: Uptake inh. % at 1 μM 5-HT
Experimental: The ability of the 1-heteroaryl-3-azabicyclo[3.1.0.]hexane of the invention for inhibiting transport of norepinephrine (NE) and/or dopamine (DA) and/or serotonin (5-HT) were evaluated using cell lines (such as the HEK 293 cell line) that stably express recombinant human NE, DA, and 5-HT transporters, respectively. […]
Lab note: compare inhibition at 1 µM against 60%. Equal or greater, write yes (1). Smaller, write no (0).

Reference set, count: 5
- CCN1CC2CC2(c2cc3ccccc3n2C)C1 (centres unmarked): yes (1)
- c1ccc2c(C34CNCC3C4)coc2c1 (centres unmarked): no (0)
- Fc1ccc2sc(C34CNCC3C4)cc2c1 (centres unmarked): yes (1)
- CN1CC2CC2(c2cc3ccccc3n2C)C1 (centres unmarked): yes (1)
- CC(C)N1CC2CC2(c2cc3ccccc3n2C)C1 (centres unmarked): yes (1)

Asked: Reported inhibition at 1 µM reaches at least 60% for c1ccc2sc(C34CNCC3C4)nc2c1 (centres unmarked) ?
Given back: no (0)

Asked: Reported inhibition at 1 µM reaches at least 60% for CN1CC2CC2(c2cc3ccc(F)cc3s2)C1 (centres unmarked) ?
Given back: yes (1)

Asked: Dear colleague, could you confirm whether c1ccc2sc([C@]34CNC[C@H]3C4)cc2c1 has inhibition at 1 µM at or above 60%?
Given back: yes (1)

Asked: Tell me whether inhibition at 1 µM is at least 60% here: CN1C[C@H]2C[C@]2(c2cc3ccccc3s2)C1
Given back: yes (1)

Asked: Is inhibition at 1 µM at least 60%? Consider CN1CC2CC2(c2csc3ccc(Cl)cc23)C1 (centres unmarked)
Given back: no (0)

Asked: Please tell me: is the molecule Cc1ccc(C23CNCC2C3)s1 (centres unmarked) at or over 60% in terms of inhibition at 1 µM?
Given back: no (0)

Asked: Please indicate if the recorded inhibition at 1 µM for c1ccc2sc(C34CNCC3C4)cc2c1 (centres unmarked) meets or exceeds 60%.
Given back: yes (1)

Asked: API: above_or_equal(metric=inhibition at 1 µM, cutoff=60%) for item CN1CC2CC2(c2coc3ccccc23)C1 (centres unmarked)
Given back: no (0)

Asked: Hi, just wondering whether CN1CC2CC2(c2cc3ccccc3s2)C1 (centres unmarked) shows inhibition at 1 µM of 60% or higher.
Given back: yes (1)

Asked: Determine whether measured inhibition at 1 µM meets or exceeds 60% for c1ccc2ncc(C34CNCC3C4)cc2c1 (centres unmarked)
Given back: no (0)

Asked: Could you tell me if the measured inhibition at 1 µM of CN1CC2CC2(c2ccc3c(ccn3C)c2)C1 (centres unmarked) reaches 60% or more?
Given back: yes (1)

Asked: Does inhibition at 1 µM meet or surpass 60% for CN1C[C@H]2C[C@@]2(c2cc3ccccc3s2)C1 ?
Given back: yes (1)

* * *

Reported inhibition at 1 µM is given for each of the following compounds.
system: human DA transporter (Homo sapiens, UniProt Q01959)
Construct: expressed in transfected cells; host or cells: CHO-K1 cells
Sequence (Q01959 whole entry): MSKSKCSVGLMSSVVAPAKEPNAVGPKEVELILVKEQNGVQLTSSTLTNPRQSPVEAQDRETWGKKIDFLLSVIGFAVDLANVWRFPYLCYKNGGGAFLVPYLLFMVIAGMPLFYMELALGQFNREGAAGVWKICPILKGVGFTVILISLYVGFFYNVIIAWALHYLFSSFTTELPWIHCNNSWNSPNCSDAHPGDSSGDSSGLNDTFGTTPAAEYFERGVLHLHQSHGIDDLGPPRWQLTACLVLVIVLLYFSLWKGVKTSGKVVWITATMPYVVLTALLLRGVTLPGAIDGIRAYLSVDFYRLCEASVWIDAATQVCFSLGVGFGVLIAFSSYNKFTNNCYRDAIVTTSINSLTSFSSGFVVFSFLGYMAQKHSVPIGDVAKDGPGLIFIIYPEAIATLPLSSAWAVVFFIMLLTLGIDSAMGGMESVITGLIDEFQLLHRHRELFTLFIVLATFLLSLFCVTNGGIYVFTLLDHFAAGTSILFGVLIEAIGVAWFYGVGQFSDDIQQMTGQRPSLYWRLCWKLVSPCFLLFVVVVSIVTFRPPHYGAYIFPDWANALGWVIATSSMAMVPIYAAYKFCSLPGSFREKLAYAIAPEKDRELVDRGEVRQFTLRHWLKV
procedureSummary: Inhibition of [3H]DA uptake in cells expressing the recombinant human DA transporter
Format: cell-based
runConditions: 1 μM compound, CHO-K1 cells expressing the DA transporter, read-out: Uptake inh. % at 1 μM DA
Respond with the bare value in %.

Sample records with inhibition at 1 µM:
* CN1CC2CC2(c2csc3ccc(Cl)cc23)C1 (stereo not shown) | 1
* c1ccc2c(C34CNCC3C4)coc2c1 (stereo not shown) | 63
* Fc1ccc2cc(C34CNCC3C4)sc2c1 (stereo not shown) | 99

Asked: # value lookup — system human DA transporter (Homo sapiens, UniProt Q01959), readout inhibition at 1 µM, item c1ccc2sc(C34CNCC3C4)cc2c1 (stereo not shown)
Given back: 91

Asked: GET /values?readout=inhibition at 1 µM&system=human DA transporter (Homo sapiens, UniProt Q01959)&item= CN1C[C@H]2C[C@]2(c2cc3ccccc3s2)C1
Given back: 83

Asked: Item: c1ccc2sc(C34CNCC3C4)nc2c1 (stereo not shown) Test system: human DA transporter (Homo sapiens, UniProt Q01959) Read-out: inhibition at 1 µM Value: ?
Given back: 5

Asked: Request: inhibition at 1 µM, test system human DA transporter (Homo sapiens, UniProt Q01959), entry c1ccc2sc([C@]34CNC[C@H]3C4)cc2c1
Given back: 90

Asked: Which inhibition at 1 µM is reported with human DA transporter (Homo sapiens, UniProt Q01959) for this entry: c1ccc2sc([C@@]34CNC[C@H]3C4)cc2c1 ?
Given back: 90

Asked: Field: inhibition at 1 µM (human DA transporter (Homo sapiens, UniProt Q01959)). Entry: CN1C[C@H]2C[C@@]2(c2cc3ccccc3s2)C1
Given back: 82

Asked: Please provide the recorded inhibition at 1 µM for Fc1ccc2sc(C34CNCC3C4)cc2c1 (stereo not shown) , tested on human DA transporter (Homo sapiens, UniProt Q01959).
Given back: 78
